pIC50 values for the compounds below.
- Tested on: HOC spheroids
- Assay Summary: Cytotoxic activity against 3D models, CellTiter-Glo 3D
- Assay type: cell-based
- Test Settings: Homo sapiens; 72 h old spheroids, 72 h incubation, n=4
Conceptually, pIC50 converts a concentration in mol/L into minus its log10.

Consider the following illustrative entries.
| Input Smiles | System Name | pIC50 |
| --- | --- | --- |
| CC(=O)C[Se]C(=O)c1ccc(C(C)(C)C)cc1 | HOC spheroids | 5.55 |
| CC(=O)C[Se]C(=O)c1ccc(Br)cc1 | HOC spheroids | 5.77 |

In the following, a different compound is considered.
Quick one: pIC50 of CC(=O)C[Se]C(=O)c1ccccc1C(F)(F)F ?
5.51

# credit: paper PMC9023544
